Reference source: patent US20240108654A1

// endpoint IC50 / system human DGKα (Homo sapiens (Human))
PROPERTY MEASURED: IC50 (nM)

- MOLECULE: "Cc1ccc(C(c2ccc(F)cc2)N2C[C@H](C)N(c3cc(=O)n(C)c4ccc(C#N)nc34)C[C@H]2C)cc1 (some centres unmarked)"
  IC50 (nM): 670
- MOLECULE: "CCC(c1ccc(F)cc1F)N1C[C@H](C)N(c2cc(=O)n(C)c3ccc(C#N)nc23)C[C@H]1C (mixture of isomers)"
  IC50 (nM): 570

====

Recorded pIC50 values (human DGKζ (Homo sapiens (Human), UniProt Q13574)) are given below.
pIC50: −log10 of the molar value.
PROPERTY MEASURED: pIC50

[a] C[C@@H]1CN(c2cc(=O)n(C)c3ccc(C#N)nc23)[C@@H](C)CN1C(c1ccccc1)c1ccc(F)cc1 (some centres unmarked)
[b] CCC(c1ccc(F)cc1F)N1C[C@H](C)N(c2cc(=O)n(C)c3ccc(C#N)nc23)C[C@H]1C (mixture of isomers)
Query block: // task: argmin of pIC50 over [ a , b ] Indicate your choice by writing its label.
Result block: a

====

system: Human venous whole blood; experiment: Human whole blood IFN-γ assay; assay type: cell-based; details: Homo sapiens, 24 h, anti-CD3 and anti-CD28 1 μg/mL each, 3 μM reference compound as 100% activation, read-out: INFg Whole Blood Normalized Agonist EC50
Reported pEC50 values follow for various compounds
pEC50 is a log-scale quantity: -log10 of the concentration expressed in molar.

- COMPOUND: "CC[C@@H]1CN(c2nc(=O)n(C)c3ccc(C#N)nc23)[C@@H](C)CN1C(c1ccc(F)cc1)c1ccc(C(F)(F)F)cn1 (stereo partly drawn) [Compound 21]"
  TARGET: "Human venous whole blood"
  pEC50: 7.37
- COMPOUND: "Cc1ccc(C(c2ccc(F)cc2)N2C[C@H](C)N(c3cc(=O)n(C)c4ccc(C#N)nc34)C[C@H]2C)cc1 (stereo partly drawn) [Compound 10]"
  TARGET: "Human venous whole blood"
  pEC50: 6.36

Field: next compound
Query block: For the compound CC[C@@H]1CN(c2nc(=O)n(C)c3ccc(C#N)nc23)[C@@H](C)CN1C(c1ccc(F)cc1)c1ccc(C(F)(F)F)cn1 (single isomer, unassigned) [Compound 22] , what pEC50 is on record?
Result block: 7.70
